# Read-out: Monokine induced gamma interferon (MIG), CXCL9 (gene 4283)
# measurementProtocol: BSK_CASM3C_MIG: BioMAP Diversity Plus: CASM3C Assay for Monokine induced gamma interferon (MIG) Biomarker Activity (AID 2283048);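 also: MIG protein level measured by ELISA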
# conditionInfo: primary human coronary artery smooth muscle cells; actives raise or lower the signal
Activity calls are given as the source filed them. The calls were made as follows: active = hit-call score of the fitted dose curve at least 0.9, where 1 is the maximum; inactive = score below 0.9.
Labels: true = active, false = inactive

| compound | labelValue |
| --- | --- |
| COP(=S)(OC)Oc1ccc(SC)c(C)c1 | false |
| CC(C)N(C(=O)COc1nnc(C(F)(F)F)s1)c1ccc(F)cc1 | false |
| C[C@H]1[C@H](c2ccc(Cl)cc2)SC(=O)N1C(=O)NC1CCCCC1 | false |
| N#Cc1c(Cl)c(Cl)c(Cl)c(C#N)c1Cl | true |
| O=C(O)CCCOc1ccc(Cl)cc1Cl | false |
| Clc1ccccc1-c1nnc(-c2ccccc2Cl)nn1 | false |
| CC1(c2ccc(Oc3ccccc3)cc2)OC(=O)N(Nc2ccccc2)C1=O (configuration not stated) | false |
| CCC(C)Nc1c([N+](=O)[O-])cc(C(C)(C)C)cc1[N+](=O)[O-] (configuration not stated) | false |
| COP(=O)(OC)OC=C(Cl)Cl | false |
| ClC1C(Cl)C(Cl)C(Cl)C(Cl)C1Cl (configuration not stated) | false |
| CNC(=O)CSP(=S)(OC)OC | false |
| O=C1c2ccccc2C(=O)N1SC(Cl)(Cl)Cl | true |
